System: Klebsiella pneumoniae
Type: cell-based
Method: To evaluate the potency and spectrum of the compounds, susceptibility testing was performed against up to nine strains of each of the Gram negative pathogens, Escherichia coli, Pseudomonas aeruginosa, Klebsiella pneumoniae and Acinetobacter baumannii. The values in Table 2 are MIC (μg/mL) against strains of E. coli, K. pneumoniae, P. aeruginosa and A. baumanii, including strains which show elevated MICs to Polymyxin. The values in Table 2A are MIC (μg/mL). […]
Bridge positions count the residues as written; N and C are the ends. Square brackets hold non-standard residues; d marks the D form. Peptide text beside a SMILES is read from it. * marks the point of attachment. ξ: configuration not given here. dBip = N[C@H](Cc1ccc(-c2ccccc2)cc1)C(=O)O; X13 = NCC[C@H](OCc1ccc(Cl)cc1)C(=O)*; dCha = N[C@H](CC1CCCCC1)C(=O)O; Thr(3ξ) = CC(O)[C@H](N)C(=O)O; X1 = CC(C)CN1CCNC[C@H]1C(=O)*; X19 = NCCC(C(=O)*)C1CCCCC1; Dab = NCC[C@H](N)C(=O)O; Dap = NC[C@H](N)C(=O)O
Each record here notes measured MIC K. pneumoniae 063.
Numbers only; they are read as µg/mL.

For orientation, consider the following solved cases.
[
  {
    "compound": "CC(C)C[C@@H]1NC(=O)[C@@H](CC2CCCCC2)NC(=O)[C@H](CCN)NC(=O)[C@@H](NC(=O)[C@H](CN)NC(=O)[C@@H](NC(=O)C(CCN)c2ccc(F)cc2)C(C)O)CCNC(=O)[C@H]([C@@H](C)O)NC(=O)[C@H](CCN)NC(=O)[C@H](CCN)NC1=O (single isomer, unassigned; isomer 2)",
    "tested_on": "Klebsiella pneumoniae",
    "unit_of_measurement": "µg/mL",
    "MIC K. pneumoniae 063": 16
  },
  {
    "compound": "CC(C)C[C@@H]1NC(=O)[C@@H](CC2CCCCC2)NC(=O)[C@H](CCN)NC(=O)[C@@H](NC(=O)[C@H](CN)NC(=O)[C@@H](NC(=O)C(CCN)C2CCCCC2)[C@@H](C)O)CCNC(=O)[C@H]([C@@H](C)O)NC(=O)[C@H](CCN)NC(=O)[C@H](CCN)NC1=O (stereo partly drawn) [Example 85] (X19-T[Dap][Dab][Dab][dCha]L[Dab][Dab]T; lactam 3-C)",
    "tested_on": "Klebsiella pneumoniae",
    "unit_of_measurement": "µg/mL",
    "MIC K. pneumoniae 063": 8
  },
  {
    "compound": "CC(C)C[C@@H]1NC(=O)[C@@H](CC2CCCCC2)NC(=O)[C@H](CCN)NC(=O)[C@@H](NC(=O)[C@H](CN)NC(=O)[C@@H](NC(=O)[C@H](CCN)OCc2ccc(Cl)cc2)[C@@H](C)O)CCNC(=O)[C@H]([C@@H](C)O)NC(=O)[C@H](CCN)NC(=O)[C@H](CCN)NC1=O [Example 74] (X13-T[Dap][Dab][Dab][dCha]L[Dab][Dab]T; lactam 3-C)",
    "tested_on": "Klebsiella pneumoniae",
    "unit_of_measurement": "µg/mL",
    "MIC K. pneumoniae 063": 16
  },
  {
    "compound": "CC(C)C[C@@H]1NC(=O)[C@@H](CC2CCCCC2)NC(=O)[C@H](CCN)NC(=O)[C@@H](NC(=O)[C@H](CCN)NC(=O)[C@@H](NC(=O)C(CCN)c2cccs2)[C@@H](C)O)CCNC(=O)[C@H]([C@@H](C)O)NC(=O)[C@H](CCN)NC(=O)[C@H](CCN)NC1=O (single isomer, unassigned; isomer 2)",
    "tested_on": "Klebsiella pneumoniae",
    "unit_of_measurement": "µg/mL",
    "MIC K. pneumoniae 063": 64
  }
]

The compound listed as CC(C)C[C@@H]1NC(=O)[C@@H](CC2CCCCC2)NC(=O)[C@H](CCN)NC(=O)[C@@H](NC(=O)[C@H](CN)NC(=O)[C@@H](NC(=O)C(CN)Cc2ccccc2)C(C)O)CCNC(=O)[C@H]([C@@H](C)O)NC(=O)[C@H](CCN)NC(=O)[C@H](CCN)NC1=O (single isomer, unassigned; isomer 2) shows MIC K. pneumoniae 063 equal to 32

// field: MIC K. pneumoniae 063; key: CC(C)C[C@@H]1NC(=O)[C@@H](Cc2ccc(-c3ccccc3)cc2)NC(=O)[C@H](CCN)NC(=O)[C@@H](NC(=O)[C@H](CN)NC(=O)[C@@H](NC(=O)[C@@H]2CNCCN2CC(C)C)C(C)O)CCNC(=O)[C@H]([C@@H](C)O)NC(=O)[C@H](CCN)NC(=O)[C@H](CCN)NC1=O (stereo partly drawn) [Example 5] (X1-[Thr(3ξ)][Dap][Dab][Dab][dBip]L[Dab][Dab]T; lactam 3-C) ; value = 16
